tgt: T1, 4H2617-AA
T1 chain: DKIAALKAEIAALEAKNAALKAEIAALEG
test-description: two-hybrid library CCmax;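 further: natural log of median RNA to DNA barcode read ratio; higher means stronger binding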
run-conditions: mean of both orientations
attribute-measured: interaction score

Below: 3 binders and their reported interaction score.
binder: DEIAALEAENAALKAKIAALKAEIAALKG [4H234-AA]
value: -1.32

binder: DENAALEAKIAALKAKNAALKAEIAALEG [4H1401-AA]
value: -0.502

binder: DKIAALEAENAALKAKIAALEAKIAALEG [4H2277-AA]
value: -1.68

1 = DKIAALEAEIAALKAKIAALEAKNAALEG [4H2151-AA]
2 = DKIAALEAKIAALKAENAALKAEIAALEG [4H2393-AA]
Asked: Identify the entry with the larger interaction score. Options: 1 and 2 Indicate which entry you chose by stating its label.
Given back: 2
(2: 1.93, 1: -0.476)

a = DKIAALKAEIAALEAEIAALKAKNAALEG [4H2575-AA]
b = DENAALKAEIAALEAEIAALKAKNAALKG [4H1552-AA]
Asked: Identify the entry with the larger interaction score. Options: a and b Indicate which entry you chose by stating its label.
Given back: a
(a: 0.75, b: -0.622)
